biological target: T1, mouse programmed cell death protein 1 Fc fusion protein (mPD-1-Fc), mPD-1 C60S (aa 25-167) (Mus musculus, UniProt Q02242, stabilised); test: SPR; Carterra LSA; Fab from the ammonium sulfate precipitate of the culture supernatant immobilised on a NiHC200M chip; hPD-1 (1-1024 nM) or mPD-1-Fc (4-1024 nM) as analyte, fourfold dilution series, no regeneration; HBS-EP pH 7.4, 25 °C; medians over the spots of a construct, KD = koff/kon; settings: one partner purified
T1 construct: not cleaved; source: Expi293F, purified (Protein A, SEC; dimeric fraction); not shown: Fc (human), C-terminal, kept
outcomeMeasure: Kd (nM)
Report as a plain number; the unit nM is understood.

# Kd (binder: toripalimab Fab H.Y109A (Fab, V domains shown, heavy chain of Sm3 with this change; numbers count from the chain's first residue; as the light chain of Sm3; source: Brevibacillus, culture supernatant (ammonium sulfate precipitate); not shown: 6xHis, C-terminal, kept; 6xHN, C-terminal, kept) VH: QGQLVQSGAEVKKPGASVKVSCKASGYTFTDYEMHWVRQAPIHGLEWIGVIESETGGTAYNQKFKGRVTITADKSTSTAYMELSSLRSEDTAVYYCAREGITTVATTYAWYFDVWGQGTTVTVSS VL: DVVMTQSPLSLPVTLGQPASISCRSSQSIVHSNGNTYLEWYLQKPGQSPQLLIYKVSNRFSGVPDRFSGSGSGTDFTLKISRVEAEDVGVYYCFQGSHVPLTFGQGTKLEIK ) is 49.7

get_value(item= toripalimab Fab L.L101S (Fab, V domains shown, as the heavy chain of Sm3; light chain of Sm3 with this change; numbers count from the chain's first residue; source: Brevibacillus, culture supernatant (ammonium sulfate precipitate); not shown: 6xHis, C-terminal, kept; 6xHN, C-terminal, kept) VH: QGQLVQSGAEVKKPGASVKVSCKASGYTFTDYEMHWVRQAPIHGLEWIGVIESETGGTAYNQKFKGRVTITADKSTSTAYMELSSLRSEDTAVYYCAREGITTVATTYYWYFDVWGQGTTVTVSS VL: DVVMTQSPLSLPVTLGQPASISCRSSQSIVHSNGNTYLEWYLQKPGQSPQLLIYKVSNRFSGVPDRFSGSGSGTDFTLKISRVEAEDVGVYYCFQGSHVPSTFGQGTKLEIK , readout=Kd) returns 48.2

Value of Kd reported for the binder toripalimab Fab L.G34Y (Fab, V domains shown, as the heavy chain of Sm3; light chain of Sm3 with this change; numbers count from the chain's first residue; source: Brevibacillus, culture supernatant (ammonium sulfate precipitate); not shown: 6xHis, C-terminal, kept; 6xHN, C-terminal, kept) VH: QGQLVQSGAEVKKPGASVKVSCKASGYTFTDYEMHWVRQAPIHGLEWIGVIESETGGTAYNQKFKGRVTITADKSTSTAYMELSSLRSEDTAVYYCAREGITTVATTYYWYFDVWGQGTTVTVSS VL: DVVMTQSPLSLPVTLGQPASISCRSSQSIVHSNYNTYLEWYLQKPGQSPQLLIYKVSNRFSGVPDRFSGSGSGTDFTLKISRVEAEDVGVYYCFQGSHVPLTFGQGTKLEIK is 154

Memo: toripalimab Fab H.S53A (Fab, V domains shown, heavy chain of Sm3 with this change; numbers count from the chain's first residue; as the light chain of Sm3; source: Brevibacillus, culture supernatant (ammonium sulfate precipitate); not shown: 6xHis, C-terminal, kept; 6xHN, C-terminal, kept) VH: QGQLVQSGAEVKKPGASVKVSCKASGYTFTDYEMHWVRQAPIHGLEWIGVIEAETGGTAYNQKFKGRVTITADKSTSTAYMELSSLRSEDTAVYYCAREGITTVATTYYWYFDVWGQGTTVTVSS VL: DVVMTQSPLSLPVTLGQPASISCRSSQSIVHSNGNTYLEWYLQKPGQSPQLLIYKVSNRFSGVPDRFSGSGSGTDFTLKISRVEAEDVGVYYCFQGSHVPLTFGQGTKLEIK , reported Kd: 94

Lab note: measured Kd of toripalimab Fab L.T102A (Fab, V domains shown, as the heavy chain of Sm3; light chain of Sm3 with this change; numbers count from the chain's first residue; source: Brevibacillus, culture supernatant (ammonium sulfate precipitate); not shown: 6xHis, C-terminal, kept; 6xHN, C-terminal, kept) VH: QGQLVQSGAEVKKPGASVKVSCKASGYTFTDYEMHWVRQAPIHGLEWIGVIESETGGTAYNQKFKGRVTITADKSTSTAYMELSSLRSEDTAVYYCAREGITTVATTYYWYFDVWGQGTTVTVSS VL: DVVMTQSPLSLPVTLGQPASISCRSSQSIVHSNGNTYLEWYLQKPGQSPQLLIYKVSNRFSGVPDRFSGSGSGTDFTLKISRVEAEDVGVYYCFQGSHVPLAFGQGTKLEIK was 115
